assay: activity coefficient (dimensionless); of the first substance listed, at infinite dilution; xn = mol fraction of the nth substance listed; conditions: 333.15 K; 101 kPa; Liquid; Chromatography; x1 = 0
Measured attribute: activity coefficient

Here is how some compounds turned out for activity coefficient.
INSERT INTO results (compound, measured_number) VALUES
  ('C[N+](=O)[O-] [nitromethane] + CCCC[N+]1(C)CCCC1.O=C1O[B-]2(OC1=O)OC(=O)C(=O)O2', 0.416),
  ('c1ccccc1 [benzene] + CCCC[N+]1(C)CCCC1.N#C[B-](C#N)(C#N)C#N', 0.858),
  ('CC(C)OC(C)C [diisopropyl ether] + CCCC[N+]1(C)CCCC1.N#C[B-](C#N)(C#N)C#N', 5.86),
  ('CC#N [acetonitrile] + CCCC[N+]1(C)CCCC1.O=C1O[B-]2(OC1=O)OC(=O)C(=O)O2', 0.509),
  ('c1ccsc1 [thiophene] + CCCC[N+]1(C)CCCC1.N#C[B-](C#N)(C#N)C#N', 0.703),
  ('C1CCOC1 [tetrahydrofuran] + CCCC[N+]1(C)CCCC1.O=C1O[B-]2(OC1=O)OC(=O)C(=O)O2', 1.13);

P: CC(C)O [propan-2-ol] + CCCC[N+]1(C)CCCC1.N#C[B-](C#N)(C#N)C#N
Q: CCCO [propan-1-ol] + CCCC[N+]1(C)CCCC1.O=C1O[B-]2(OC1=O)OC(=O)C(=O)O2
Among P and Q , which shows a numerically higher activity coefficient result? Field: selected label. Fill in the label of the entry you choose.
Q
(Q: 2.56, P: 1.35)
